assay: chemical genetic growth profiling, strain panel (AID 1159580);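 further: tested at 20 µM; growth read once vehicle control cultures reached saturation at 30 °C; 1 = growth at the plate median or of vehicle wells; lower values mean less growth of the strain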; conditions: S. cerevisiae deletion strains, growth OD, locus YIL147C, strain SLN1, active compounds read low
The campaign covered roughly 5,500 compounds. About 2,000 (36%) were called active. Another 18% or so got no clear call; they are omitted. The list shows a part of the results.
readout.type: normalized growth

>>> df
                                   compound       readout_type  test_result
0  CCOC(=O)C1=C(N)OC2=C(C(=O)CC(C)(C)C2)C1c1ccc(Cl)cc1Cl (stereo not given)  normalized growth        0.984
1  O=C(NC(=O)c1c(F)cccc1Cl)OCc1ccc(Cl)cc1Cl  normalized growth        0.986
2  Cc1ccc(S(=O)(=O)CCSC2=CC(=O)CC(C)(C)S2)cc1  normalized growth        0.997
3  CC(=O)c1sc(SCCS(=O)(=O)c2ccc(C)cc2)c2c1CC(C)(C)CC2=O  normalized growth        0.979
4  COC(=O)C1=C(C)NC(C)=C(C(=O)OC)C1c1ccc(Cl)cc1Cl  normalized growth        0.961

---

assay: chemical genetic growth profiling, strain panel (AID 1159580); conditions: S. cerevisiae deletion strains, growth OD, locus YDR334W, strain swr1, active compounds read low
In all, about 5,500 compounds went through this assay and about 2,000 (36%) were called active. About 18% were inconclusive and are not listed. Some of the results follow.
The label y is reserved for normalized growth strictly under 1; n covers values equal to or above it.

                                   compound  group_label
0                 CC(=O)Oc1ccc(Cl)c2cccnc12            y
1                     Oc1c(I)cc(I)c2cccnc12            y
2  COc1ccccc1OCCNCC(O)COc1cccc2[nH]c3ccccc3c12 (centres undefined)            n
3                   C[n+]1cccc(C(=O)[O-])c1            y
4  C1CCN2CC3CC(CN4CCCCC34)C2C1 (centres undefined)            n

---

assay: chemical genetic growth profiling, strain panel (AID 1159580);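 further: tested at 20 µM; growth read once vehicle control cultures reached saturation at 30 °C; 1 = growth at the plate median or of vehicle wells; lower values mean less growth of the strain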; settings: S. cerevisiae deletion strains, growth OD, locus YLR342W, strain FKS1, active compounds read low
The campaign covered roughly 5,500 compounds. About 2,000 (36%) were called active. Inconclusive results (about 18%) are left out. The list shows a part of the results.
// boundary case: normalized growth equal to 1 maps to f; strictly smaller maps to t

>>> print(df.to_string())
                                   molecule  group_label
0  C=C(C)C1CC=C(CO)CC1 (configuration not stated)            t
1                           O=C(O)C1=CCNCC1            f
2                   C[n+]1cccc(C(=O)[O-])c1            t
3  COc1cc(OC)c2c(=O)c(-c3ccccc3)c(C)oc2c1OC            t

---

test: chemical genetic growth profiling, strain panel (AID 1159580);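 further: tested at 20 µM; growth read once vehicle control cultures reached saturation at 30 °C; 1 = growth at the plate median or of vehicle wells; lower values mean less growth of the strain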; conditions: S. cerevisiae deletion strains, growth OD, locus YDR101C, strain arx1, active compounds read low
Hit rate of the full screen: of about 5,500 compounds, about 2,000 (36%) were called active. About 18% were inconclusive and are not listed. Some of the results follow.
normalized growth values for the compounds below.
readout.type: normalized growth

In [3]: df
Out[3]:
                                    compound       test_result
 0  CCC(Cc1c(I)cc(I)c(N)c1I)C(=O)O (centres undefined)      1 (inactive)
 1                   Oc1c(Cl)cc(Cl)c2cccnc12   0.0587 (active)
 2                       Cc1occc(=O)c1/C=C/O  0.989 (inactive)
 3                   C[n+]1cccc(C(=O)[O-])c1  0.995 (inactive)
 4                            Cc1occc(=O)c1O  0.991 (inactive)
 5                 OC[C@@H]1CCCN2CCCC[C@H]12   1.02 (inactive)
 6            Nc1nc2ncc(C(=O)O)nc2c(=O)[nH]1   1.03 (inactive)
 7  COc1cc(C(=O)NCc2ccc(OCCN(C)C)cc2)cc(OC)c1OC   0.93 (inactive)
 8  O=C1C=CC2=C3c4cc(O)c(O)cc4CC3(O)COC2=C1O (centres undefined)   1.06 (inactive)
 9           C[C@H](N)[C@H](O)c1ccc(O)c(O)c1   1.01 (inactive)
10  Cc1c(O)c(O)cc2c1CC=C1[C@@]2(C)CC[C@@]2(C)C3C[C@](C)(C(=O)O)CC[C@]3(C)CC[C@]12C (some centres undefined)  0.962 (inactive)
11  CCC[C@H]1CC2=C(C[C@@H](CC)CC3=C1C(=O)OC3=O)C(=O)OC2=O   1.03 (inactive)
12      C=C(CC)C(=O)c1ccc(OCC(=O)O)c(Cl)c1Cl   0.92 (inactive)
13  COc1cc(OC)c2c(=O)c(-c3ccccc3)c(C)oc2c1OC  0.984 (inactive)
14  C[C@H]1[C@H]2CCC3C4CC=C5C[C@@H](N(C)C)CC[C@]5(C)C4CC[C@@]32CN1C (some centres undefined)   1.04 (inactive)
15                     CCCc1occc(=O)c1/C=C/O  0.943 (inactive)
16  CCN(CC)CCOc1ccc2c(c1)C(=O)c1cc(OCCN(CC)CC)ccc1-2  0.991 (inactive)
17  CCN(CC)CCOc1ccc(/C(=C(\Cl)c2ccccc2)c2ccccc2)cc1   0.0624 (active)
18  CC(=O)Nc1ccc(S(=O)(=O)Nc2ccc([N+](=O)[O-])cc2)cc1   0.99 (inactive)
19                   Oc1c(Br)cc(Br)c2cccnc12   0.0674 (active)
20  CN(C)CCOC(C)(c1ccccc1)c1ccccn1 (centres undefined)  0.993 (inactive)
21                    CN[C@H](CC(=O)O)C(=O)O   1.03 (inactive)
22  CC(=O)OCC1(C)CCC2(C)CCC3(C)C4=CCc5c(cc(OC(C)=O)c(OC(C)=O)c5C)C4(C)CCC3(C)C2C1 (centres undefined)  0.974 (inactive)
23  CCCCC(CC)CN1CN(CC(CC)CCCC)CC(C)(N)C1 (centres undefined)    0.573 (active)

---

assay: chemical genetic growth profiling, strain panel (AID 1159580);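 further: tested at 20 µM; growth read once vehicle control cultures reached saturation at 30 °C; 1 = growth at the plate median or of vehicle wells; lower values mean less growth of the strain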; details: S. cerevisiae deletion strains, growth OD, locus YOR083W, strain WHI5, active compounds read low
The campaign covered roughly 5,500 compounds. About 2,000 (36%) were called active. Inconclusive results (about 18%) are left out. This is one part of the list.
# key: entry, value: normalized growth
readout.type: normalized growth

molecule	readout.type	test.result
Nc1ccc(S(=O)(=O)Nc2ccccn2)cc1	normalized growth	0.991
Nc1ncnc2c1ncn2C1O[C@H](COP(=O)(O)O)[C@@H](O)[C@H]1O (stereo partly specified)	normalized growth	0.988
COc1ccccc1OCCNCC(O)COc1cccc2[nH]c3ccccc3c12 (stereo unspecified)	normalized growth	1
COc1cc2c(c(OC)c1OC)-c1ccc(OC)c(=O)cc1[C@@H](NC(C)=O)CC2	normalized growth	1.02
C[C@H]1[C@H]2CCC3C4CC=C5C[C@@H](N(C)C)CC[C@]5(C)C4CC[C@@]32CN1C (stereo partly specified)	normalized growth	1
CC(=O)O[C@H]1C[C@@H](OC(C)=O)C(C)(C)C2C[C@@H](OC(C)=O)[C@@]3(C)C4=CC(=O)O[C@@H](c5ccoc5)[C@]4(C)CCC3[C@]21C (stereo partly specified)	normalized growth	1.01
Oc1c(Cl)cc(Cl)c2cccnc12	normalized growth	0.0648
C=C[C@@H](C1=CC(=O)C(OC)=C(OC)C1=O)c1ccccc1	normalized growth	0.554
CCOP(=S)(OCC)SCn1c(=O)oc2cc(Cl)ccc21	normalized growth	0.961
OC[C@@H](O)[C@@H](O[C@@H]1O[C@H](CO)[C@@H](O)[C@H](O)[C@H]1O)[C@H](O)[C@@H](O)CO	normalized growth	1.03
CC1(C)C(C(Cl)Cl)C2(Cl)C(Cl)C(Cl)C1(Cl)C2(Cl)Cl (stereo unspecified)	normalized growth	0.982
CCCC(C)C1(CC)C(=O)N=C(S)NC1=O (stereo unspecified)	normalized growth	0.988
CC1(C)C(=O)C=C[C@@]2(C)C1=C(O)C(=O)[C@]1(C)C2CC[C@@]2(C)[C@H](c3ccoc3)C[C@H]3O[C@]321 (stereo partly specified)	normalized growth	0.875
CN(C)CCOC(C)(c1ccccc1)c1ccccn1 (stereo unspecified)	normalized growth	0.973
CC(C)NCC(O)c1ccc(O)c(O)c1 (stereo unspecified)	normalized growth	0.981
C=C(C)C1CC=C(CO)CC1 (stereo unspecified)	normalized growth	0.994
O=C(OC1Cc2c(O)cc(O)cc2OC1c1cc(O)c(O)c(O)c1-c1c(C2Oc3cc(O)cc(O)c3CC2OC(=O)c2cc(O)c(O)c(O)c2)cc(O)c(O)c1O)c1cc(O)c(O)c(O)c1 (stereo unspecified)	normalized growth	0.976
CCN(CC)CCOc1ccc(/C(=C(\Cl)c2ccccc2)c2ccccc2)cc1	normalized growth	0.102
O=c1[nH]c(=O)n(C2C[C@@H](O)[C@@H](CO)O2)cc1F (stereo partly specified)	normalized growth	1.01
O=C(NC(=O)c1c(F)cccc1F)Nc1ccc(Cl)cc1	normalized growth	0.968
COc1cccc(/C=C/C(=O)O)c1C(C)C	normalized growth	0.981
CC(=O)Nc1cc([As](=O)(O)O)ccc1O	normalized growth	0.978
CC(=O)NCCCS(=O)(=O)O	normalized growth	0.998
O=C(O)c1ccccc1Nc1ccccc1	normalized growth	0.929
O=C(O)c1ccccc1Nc1cccc(C(F)(F)F)c1	normalized growth	0.834
CC(=O)NCCCCCC(=O)O	normalized growth	1.06
C=CC(C1=CC(=O)C=CC1=O)c1ccccc1 (stereo unspecified)	normalized growth	0.981
CCN(CC)CCOc1ccc2c(c1)C(=O)c1cc(OCCN(CC)CC)ccc1-2	normalized growth	0.968
C=C(C)[C@H]1CC=C(C(=O)O)CC1	normalized growth	0.934
C=CC(C1=CC(=O)C(OC)=CC1=O)c1ccc(OC)cc1 (stereo unspecified)	normalized growth	0.788
Nc1ncnc2c1ncn2C1C[C@H](O)[C@@H](CO)O1 (stereo partly specified)	normalized growth	1.01
OC[C@@H]1CCCN2CCCC[C@H]12	normalized growth	0.97
CC(=O)/C(=C\c1ccccc1)CC(=O)O	normalized growth	1.02
C/C=C/c1ccc2c(c1)OCO2	normalized growth	0.993
Nc1ncnc2c1ncn2[C@@H]1O[C@H](CO)[C@@H](O)[C@H]1O	normalized growth	0.96
COc1ccc(C(Cl)=C(c2ccc(OC)cc2)c2ccc(OC)cc2)cc1	normalized growth	1.02
CC(C)(C)NC[C@@H](O)COc1nsnc1N1CCOCC1	normalized growth	0.981
CC(=O)O[C@@H]1C[C@@]2(C)[C@H](c3ccoc3)C[C@H]3O[C@]32[C@]2(C)C(=O)C(O)=C3C(C)(C)C(=O)C=C[C@]3(C)C12 (stereo partly specified)	normalized growth	0.976
NC[C@H](O)c1ccc(O)c(O)c1	normalized growth	1.05
Oc1c(I)cc(Cl)c2cccnc12	normalized growth	0.0797
C=CCC1(C(C)CCC)C(=O)N=C(S)NC1=O (stereo unspecified)	normalized growth	0.976
CC/C(=C(\c1ccccc1)c1ccc(OCCN(C)C)cc1)c1ccccc1	normalized growth	0.0831
C=CC(C1=CC(=O)C(OC)=CC1=O)c1ccc(O)cc1 (stereo unspecified)	normalized growth	0.977
C1CCN2CC3CC(CN4CCCCC34)C2C1 (stereo unspecified)	normalized growth	0.99
O=[N+]([O-])c1cc([As](=O)(O)O)ccc1O	normalized growth	0.975
CS(=O)(=O)CCCCN=C=S	normalized growth	0.554
